- study system: hT2R8 (Homo sapiens (Human))
- Sequence (Q9NYW2 whole entry): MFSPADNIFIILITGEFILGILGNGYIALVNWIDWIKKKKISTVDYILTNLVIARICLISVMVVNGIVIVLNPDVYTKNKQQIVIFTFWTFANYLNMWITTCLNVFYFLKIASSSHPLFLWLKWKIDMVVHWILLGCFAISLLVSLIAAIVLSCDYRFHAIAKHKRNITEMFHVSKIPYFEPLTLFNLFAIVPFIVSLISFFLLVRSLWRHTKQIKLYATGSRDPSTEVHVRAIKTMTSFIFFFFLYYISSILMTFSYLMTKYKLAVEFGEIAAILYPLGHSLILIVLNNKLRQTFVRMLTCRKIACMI
- experimental details: hT2R8 antagonist high-throughput FLIPR assay, stable cell line with G16g44, agonist andrographolide
- Type: cell-based
- test context: Table A; read-out: hT2R8 IC50
pIC50: −log10 of the molar value.
Overview of recorded pIC50 for various molecules
observable: pIC50

molecule	reported measurement
Cc1noc(C)c1Cn1cc(NC(=O)c2cccc3nccnc23)cn1 [Example 4-76]	5.77
Cc1noc(C)c1Cn1cc(NC(=S)Nc2ccccc2)cn1 [Example 4-112]	5.60
Cc1noc(C)c1Cn1cc(NC(=S)Nc2cccnc2)cn1 [Example 4-107]	5.52
Cc1cc(C(=O)Nc2cnn(Cc3c(C)noc3C)c2)c(C)o1 [Example 4-53]	5.52
COc1cc(C(=O)Nc2cnn(Cc3c(C)noc3C)c2)ccc1C [Example 4-74]	5.66
Cc1noc(C)c1Cn1cc(NC(=O)c2ccc3[nH]nnc3c2)cn1 [Example 4-87]	6.22
COc1cccc(CC(=O)Nc2cnn(Cc3c(C)noc3C)c2)c1OC [Example 4-31]	6.10
COc1ccc(C(=O)Nc2cnn(Cc3c(C)noc3C)c2)cc1 [Example 4-17]	6.59
COc1ccccc1NC(=S)Nc1cnn(Cc2c(C)noc2C)c1 [Example 4-106]	5.58
Cc1cccc(C(=O)Nc2cnn(Cc3c(C)noc3C)c2)c1 [Example 4-28]	6.24
CNc1cnn(Cc2c(C)noc2C)c1 [Example 4-96]	5.06
Cc1noc(C)c1Cn1cc(NC(=O)c2cccn2C)cn1 [Example 4-49]	5.47
COc1ccccc1S(=O)(=O)Nc1cnn(Cc2c(C)noc2C)c1 [Example 4-103]	5.42
Cc1noc(C)c1Cn1cc(N(C)C(=O)C2(c3ccccc3)CC2)cn1 [Example 4-66]	5.08
COc1ccc(OC)c(S(=O)(=O)Nc2cnn(Cc3c(C)noc3C)c2)c1 [Example 4-101]	5.79

====

- study system: hT2R3 (Homo sapiens (Human))
- experimental details: hT2R panel inhibition, transient HEK293 G16g44, agonist Chloroquine pH6.5 50 μM
- Type: cell-based
- test context: HEK293, compound at 25 μM; receptor activated to EC80 with the corresponding agonist; read-out: screening result against bitter receptor 3
observable: inhibition at 25 µM

compound	reported measurement
COc1ccc(CN(Cc2ccccc2)S(=O)(=O)Cc2ccc(C(=O)O)cc2)cc1 [Example 5-16]	40 to 60%
COc1cccc(CN(Cc2ccco2)S(=O)(=O)c2ccc(C(=O)O)cc2)c1 [Example 5-6]	20 to 40%
COc1ccc(CN(Cc2cccc(Cl)c2)S(=O)(=O)c2ccc(C(=O)O)cc2)cc1 [Example 5-14]	> 80%
O=C(O)c1ccc(S(=O)(=O)N(Cc2ccccc2)Cc2ccco2)cc1 [Example 5-5]	40 to 60%
COc1ccc(CN(Cc2ccc(C(=O)O)cc2)S(=O)(=O)c2ccc(O)cc2)cc1 [Example 5-44]	20 to 40%
COc1ccc(CN(C(C)c2ccccc2)S(=O)(=O)c2ccc(C(=O)O)cc2)cc1 (centres unmarked) [Example 5-95]	40 to 60%
COc1ccccc1CN(Cc1ccc(C(=O)O)cc1)S(=O)(=O)c1ccccc1 [Example 5-100]	20 to 40%
COc1ccc(CN(Cc2ccccc2)S(=O)(=O)c2ccc(-c3nn[nH]n3)cc2)cc1 [Example 5-46]	20 to 40%

====

Overview of recorded inhibition at 25 µM for various molecules
- study system: hT2R3 (Homo sapiens (Human), UniProt Q9NYW6)
- Sequence (Q9NYW6 whole entry): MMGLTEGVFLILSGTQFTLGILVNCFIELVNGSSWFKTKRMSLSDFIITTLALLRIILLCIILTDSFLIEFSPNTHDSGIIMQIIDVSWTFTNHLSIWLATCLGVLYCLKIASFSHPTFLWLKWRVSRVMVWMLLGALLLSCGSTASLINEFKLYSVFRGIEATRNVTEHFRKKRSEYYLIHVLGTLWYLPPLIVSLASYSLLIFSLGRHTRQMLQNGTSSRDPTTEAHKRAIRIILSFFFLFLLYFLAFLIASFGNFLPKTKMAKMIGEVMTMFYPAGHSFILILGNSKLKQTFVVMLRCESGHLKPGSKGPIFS
- experimental details: hT2R panel inhibition, transient HEK293 G16g44, agonist Chloroquine pH6.5 50 μM
- Assay type: cell-based
- test context: HEK293, compound at 25 μM; receptor activated to EC80 with the corresponding agonist; read-out: screening result against bitter receptor 3

structure string	inhibition at 25 µM
COc1ccc(CN(Cc2ccccc2)C(=O)c2ccc(C(=O)O)cc2)cc1	20 to 40%
COc1ccc(CN(Cc2ccc(C)o2)S(=O)(=O)c2ccc(C(=O)O)cc2)cc1	20 to 40%
O=C(O)c1ccc(S(=O)(=O)N(Cc2ccccc2)Cc2ccccc2Cl)cc1	40 to 60%
COc1ccc(CN(Cc2cccc(F)c2F)S(=O)(=O)c2ccc(C(=O)O)cc2)cc1	40 to 60%
COc1ccc(CN(Cc2ccc(OC)c(F)c2)S(=O)(=O)c2ccc(C(=O)O)cc2)cc1	40 to 60%
COc1ccc(CN(Cc2ccccc2)S(=O)(=O)CCC(=O)O)cc1	20 to 40%
COc1ccc(CN(CC2CCCCC2)S(=O)(=O)c2ccc(C(=O)O)cc2)cc1	60 to 80%
COc1ccc(CN(Cc2cccc(F)c2)S(=O)(=O)c2ccc(C(=O)O)cc2)cc1	60 to 80%

====

- study system: UniProt:Q9NYW2
- experimental details: hT2R8 antagonist high-throughput FLIPR assay, stable cell line with G16g44, agonist andrographolide
- Format: cell-based
- test context: read-out: IC50 on hT2R8 bitter receptor
pIC50: −log10 of the molar value.
observable: pIC50

molecule	reported measurement
Cc1noc(C)c1Cn1cc(N2CN(Cc3ccccc3)CN(CCc3ccccc3)C2=O)cn1 [Example 9-7]	5.58
Cc1noc(C)c1Cn1cc(N2C(=O)CN(CCOc3ccccc3)C2=O)cn1 [Example 10-5]	7.22
COc1cccc(C(=O)Nc2cnn(Cc3c(C)noc3C)c2)c1 [Example 4-7]	6.41

====

- study system: UniProt Q9NYW2
- experimental details: hT2R8 antagonist high-throughput FLIPR assay, stable cell line with G16g44, agonist andrographolide
- Format: cell-based
- test context: read-out: IC50 on hT2R8 bitter receptor
- Source text: After a ligand is identified for a particular hT2R, a HEK293 cell line stably expressing both the hT2R and G16gust44 are generated, facilitating future screening assays to identify other ligands that activate the particular hT2R or which modulate (block or enhance) the activation of this hT2R by another bitter ligand such as a bitter compound contained in coffee. This avoids the need for transient transfection. […]
observable: IC50 (nM)

molecule	reported measurement
Cc1noc(C)c1Cn1cc(N2C(=O)NC(CC(C)C)C2=O)cn1 (centres unmarked)	1000
COc1ccnc(CN2CC(=O)N(c3cnn(Cc4c(C)noc4C)c3)C2=O)c1OC	1000
Cc1noc(C)c1Cn1cc(N2C(=O)NC(CC(=O)Nc3ccccc3)C2=O)cn1 (centres unmarked)	750
COc1cc(C(=O)Nc2cnn(Cc3c(C)noc3C)c2)cc2c1OC(C)O2 (centres unmarked)	700
Cc1noc(C)c1Cn1cc(-n2c(=O)n(Cc3ccccc3)n(Cc3ccccc3)c2=O)cn1	800

====

- study system: hT2R10 (Homo sapiens (Human), UniProt Q9NYW0)
- Sequence (Q9NYW0 whole entry): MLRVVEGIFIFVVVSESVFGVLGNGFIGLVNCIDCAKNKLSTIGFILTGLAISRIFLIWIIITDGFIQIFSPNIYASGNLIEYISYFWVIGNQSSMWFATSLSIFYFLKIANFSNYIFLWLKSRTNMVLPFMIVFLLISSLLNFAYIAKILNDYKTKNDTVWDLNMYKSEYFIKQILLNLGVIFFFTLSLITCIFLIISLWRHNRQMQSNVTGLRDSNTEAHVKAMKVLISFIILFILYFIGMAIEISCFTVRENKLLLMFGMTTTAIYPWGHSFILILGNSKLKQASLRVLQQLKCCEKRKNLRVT
- experimental details: hT2R panel inhibition, transient HEK293 G16g44, agonist Strychnine 50 μM
- Assay type: cell-based
- test context: HEK293, read-out: screening result against bitter receptor 10, compound at 25 μM; receptor activated to EC80 with the corresponding agonist
observable: inhibition at 25 µM

molecule	reported measurement
COc1ccc(CN(Cc2ccccc2)S(=O)(=O)Cc2ccc(C(=O)O)cc2)cc1 [Example 5-16]	20 to 40%
COc1ccc(CN(C(C)c2ccccc2)S(=O)(=O)c2ccc(C(=O)O)cc2)cc1 (centres unmarked) [Example 5-95]	20 to 40%
COc1ccc(CN(Cc2ccccc2C#N)S(=O)(=O)c2ccc(C(=O)O)cc2)cc1 [Example 5-25]	60 to 80%
O=C(O)c1ccc(S(=O)(=O)N(Cc2ccccc2)Cc2ccc3c(c2)OCO3)cc1 [Example 5-93]	40 to 60%
COc1ccc(CN(Cc2ccc(C(=O)O)cc2)S(=O)(=O)c2ccccc2)cc1 [Example 5-102]	20 to 40%
O=C(O)c1ccc(CN(Cc2cccc(F)c2)S(=O)(=O)c2ccccc2)cc1 [Example 5-104]	40 to 60%
COc1ccc(CN(Cc2ccc(OC)c(OC)c2)S(=O)(=O)c2ccc(C(=O)O)cc2)cc1 [Example 5-40]	40 to 60%
COc1ccc(CN(Cc2cccc(F)c2F)S(=O)(=O)c2ccc(C(=O)O)cc2)cc1 [Example 5-33]	60 to 80%
COc1ccc(CN(CCc2ccccc2)S(=O)(=O)c2ccc(C(=O)O)cc2)cc1 [Example 5-19]	20 to 40%
COc1ccc(CN(Cc2cccc(OC)c2)S(=O)(=O)c2ccc(C(=O)O)cc2)cc1 [Example 5-34]	40 to 60%
CCCOc1ccc(CN(Cc2ccco2)S(=O)(=O)c2ccc(C(=O)O)cc2)cc1 [Example 5-8]	40 to 60%
O=C(O)c1ccc(CN(Cc2ccc(F)cc2)S(=O)(=O)c2ccccc2)cc1 [Example 5-105]	20 to 40%
COc1ccc(CN(Cc2cc(OC)cc(OC)c2)S(=O)(=O)c2ccc(C(=O)O)cc2)cc1 [Example 5-67]	40 to 60%
Cc1ccc(CN(Cc2ccccc2)S(=O)(=O)c2ccc(C(=O)O)cc2)cc1 [Example 5-70]	40 to 60%
COc1ccccc1CN(Cc1ccco1)S(=O)(=O)c1ccc(C(=O)O)cc1 [Example 5-7]	20 to 40%
COc1ccc(CN(Cc2ccc(OC)c(F)c2)S(=O)(=O)c2ccc(C(=O)O)cc2)cc1 [Example 5-41]	40 to 60%
COc1ccccc1CN(Cc1ccc(C(=O)O)cc1)S(=O)(=O)c1ccccc1 [Example 5-100]	20 to 40%
COc1cccc(CN(Cc2ccco2)S(=O)(=O)c2ccc(C(=O)O)cc2)c1 [Example 5-6]	40 to 60%
Cc1cccc(CN(Cc2ccccc2)S(=O)(=O)c2ccc(C(=O)O)cc2)c1 [Example 5-73]	40 to 60%
Cc1ccc(S(=O)(=O)N(Cc2ccc(F)cc2)CC2CCC(C(=O)O)CC2)cc1 (centres unmarked) [Example 5-20]	40 to 60%
N#Cc1ccc(CN(Cc2ccccc2)S(=O)(=O)c2ccc(C(=O)O)cc2)cc1 [Example 5-91]	40 to 60%
COc1ccc(CN(Cc2ccc(OC)cc2)S(=O)(=O)c2ccc(C(=O)O)cc2)cc1 [Example 5-30]	40 to 60%
O=C(O)C1CCC(CN(Cc2ccc(F)cc2)S(=O)(=O)c2ccccc2)CC1 (centres unmarked) [Example 5-22]	20 to 40%

Values were extracted from patent US9247759B2.
